test: viability gain of MRP-1-high H69AR cells under doxorubicin, pilot screen, MRP-1 activator project, CellTiter-Glo, duplicate (AID 807); conditions: H69AR viability with doxorubicin, CellTiter-Glo luminescence; at 10 µM; hits give high values;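 note: compound pretreatment 18-22 h then 72 h combined with doxorubicin; 0% = doxorubicin alone and 100% = vehicle without doxorubicin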
I'd appreciate it if you could supply viability increase values for the items below.
Give bare numbers, in %.

COCCNC(=O)CN(c1ccccc1OC)S(C)(=O)=O ... 0.7
O=C(NCCc1csc(-c2cccnc2)n1)c1cccs1 ... -0.87
CCOC(=O)Cn1c(=NC(=O)CSC(C)=O)sc2ccccc21 ... -4.54
Cc1ccsc1-c1nc(CSCC(=O)N2CCN(c3ccccc3)CC2)c(C)o1 ... -3.18
CN1CCN(CCNC(=O)c2cc3c(=O)n(C)c4ccccc4c3n2C)CC1 ... -4.6
COc1ccc(C)cc1NC(=O)c1ccoc1C ... 0.93
CCOc1ccc(NC2CCN(C(C)=O)CC2)cc1 ... 0.27
CCSc1nnc(Cc2cc(=O)[nH]c(=O)[nH]2)n1-c1ccc(Cl)cc1 ... -0.84
CC(=O)Nc1c2c(nn1-c1cccc(Cl)c1)CS(=O)C2 (stereo unspecified) ... -0.33
CCOC(=O)C1=C(C)NC(=O)NC1c1cn(-c2ccccc2)nc1-c1cccs1 (stereo unspecified) ... -0.43

Pending molecule:
*Q* Return reported viability increase; argument: O=C(CN1CCOc2ccccc21)N1CCC(Cc2ccccc2)CC1
*A* -3.42

Value source: PubChem BioAssay
